- Target Of Assay: T1, huIL-17RA-FLAG-polyHis (human, UniProt Q96F46 33-320)
- T1 construct: also called wild-type IL-17RA-FLAG-polyHis; HuIL-17RA-Flag-pHis
- Method Notes: Luminex binning; bead huIgG control (f15) + IL-17RA [D00007 Fig. 8B]
Property Label: normalized MFI
Give bare numbers.

Sample answers from the record:
{"Binder": "AMH16/AML16 (antibody, V domains shown, Fully human mAb from IgG2 XenoMouse hybridomas; also called AM-16) VH: QVQLVQSGAEVKKPGASVKVSCKASGYTFTSYGISWVRQAPGQGLEWMGWISAYNGNTKYAQKLQGRVTMTTDTSTSTVYMELRSLRSDDTAVYYCARKQLVFDYWGQGTLVTVSS VL: EIVMTQSPATLSVSPGERATLSCRASQSISTSLAWYQQKPGQAPRLLIYGTSTRATGIPARFSGSGSGTEFTLTISSLQSEDFAVYFCQQYDIWPLTFGGGTKVEIK", "normalized MFI": 95}
{"Binder": "AMH21/AML21 (antibody, V domains shown, Fully human mAb from IgG2 XenoMouse hybridomas; also called AM-21) VH: EVQLVESGGGSVQPGGSLRLSCAASGFTFSSYSMNWVRQAPGKGLEWVSIISSRSSIIHYADSVKGRFTISRDNAKNSLYLQMNSLRDEDTAVYYCARPKVGGGMDVWGQGTTVTVSS VL: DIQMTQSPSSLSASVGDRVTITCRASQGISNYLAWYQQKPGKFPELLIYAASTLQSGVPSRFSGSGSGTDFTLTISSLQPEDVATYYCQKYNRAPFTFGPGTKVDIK", "normalized MFI": 28}
{"Binder": "AMH6/AML6 (antibody, V domains shown, Fully human mAb from IgG2 XenoMouse hybridomas) VH: QVQLVQSGAEVKKPGASVKVSCKASGYTLTRYGISWVRQAPGQGLEWMGWISAYNGNTNYAQKLQGRVTMTTDTSTSTAYMELRSLRSDDTAVYYCARRDYDILTGYYNGFDPWGQGTLVTVSS VL: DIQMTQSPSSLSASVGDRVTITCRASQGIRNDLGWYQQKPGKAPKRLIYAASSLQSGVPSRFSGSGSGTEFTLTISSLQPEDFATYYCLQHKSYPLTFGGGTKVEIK", "normalized MFI": 26}

Now for the binder whose normalized MFI we want.
[in] # lookup: normalized MFI of AMH20/AML20 (antibody, V domains shown, Fully human mAb from IgG2 XenoMouse hybridomas; also called AM-20) VH: EVQLVESGGGLVQPGGSLRLSCAASGFTFSSYSMNWVRQAPGKGLEWVSFISARSSTIYYADSVKGRFTISRDNAKNSLYLQMNSLRDEDTAVYYCARPKVGGGMDVWGQGTTVTVSS VL: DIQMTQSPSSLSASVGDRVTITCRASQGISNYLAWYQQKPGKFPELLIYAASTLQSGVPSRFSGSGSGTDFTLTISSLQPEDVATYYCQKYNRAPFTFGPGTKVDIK
[out] 50
